# Test system: K-562 leukemia
# protocol.notes: NCI-60 one-dose screen, 48 h (100 = growth as untreated, 0 = no growth, -100 = all killed)
# assay.setup: 10 µM unless noted
This is part of a sample that, as a whole, favours compounds with a hit. Of some 83,000 tested, about 20% had one in any assay.

compound | growth / %
COc1cnc2c(c1)C(=O)c1c-2n(CCCN2CCN(C)CC2)c(=O)c2cc([N+](=O)[O-])ccc12 | -50.8
COc1ccc(/C=C2\N=C3Sc4cc(Cl)ccc4C(=O)N3C2=O)cc1 | 94.1
O=C(/C=C/c1ccc(Cl)cc1)c1ccc(O)c(CN2CCN(c3cc4c(cc3F)c(=O)c(C(=O)O)cn4C3CC3)CC2)c1 | 50.7
O=C(CCCN1CCOCC1)Nc1ccc(Cn2nnc3c2C(=O)c2nnn(Cc4ccc(NC(=O)CCCN5CCOCC5)cc4)c2C3=O)cc1 | 20.9
O=C(NC(Cc1ccccc1)C(=O)CCl)OCc1ccccc1 (stereo not given) | 13.7
CCCCCCCCCCCCN1CCCC(C)C1 (stereo not given) | 19.2
Oc1ccccc1N=Cc1c(O)ccc2ccccc12 | 80.3
Cn1cc(-c2nc(-c3c[nH]c4ccccc34)cs2)c2cccnc21 | 18
COc1ccc(S(=O)(=O)NCCCNc2nccc(-c3c(-c4cccc(N)c4)nc4sccn34)n2)cc1 | 69.7
O=C(/C=C/c1ccc(B(O)O)cc1)/C=C/c1ccc(B(O)O)cc1 | 12.9

---

Some compounds, each annotated with its measured growth.
# Test system: LOX IMVI melanoma
# protocol.notes: NCI-60 one-dose screen, 48 h (100 = growth as untreated, 0 = no growth, -100 = all killed)
# assay.setup: 10 µM unless noted
The panel holds about 83,000 compounds, 20% with a hit somewhere; the sample as a whole holds those more often.

compound | growth [%]
Nc1cc(-c2nc3sccn3c2-c2ccnc(NCCCNS(=O)(=O)c3ccc(F)cc3)n2)ccc1F | 34.1
CCOC(=O)C(C#N)C1CCCCC1 (stereo unspecified) | 92.4
CCN(CC)CC(C)(C)C(=O)/C=C/c1ccccc1 | -2.72
C(=N\Nc1nnn(Cc2ccccc2)n1)/c1ccccc1 | 48.8
O=C(Nc1ccc(Nc2cc(Nc3ccccc3)ncn2)cc1)Nc1cc(C(F)(F)F)ccc1F | 63.6
COc1cc2nc3cc([N+](=O)[O-])ccc3c(NCCCNCC(C)(C)O)c2cc1OC | -58.4
Nc1nc2ccc(-c3nc4ccc5[nH]ncc5c4c4c3CCC4)cc2s1 | 19.6
Clc1ccc(-c2nnc(COc3ccccc3Cl)o2)cc1 | 81.5
COc1ccc(C(=O)COc2ccc(/C=C3\Oc4ccc(Cl)cc4C3=O)cc2)cc1 | 92
Cc1ccc(NC(=O)c2sc3nc4c(cc3c2N)C(=O)CCC4)cc1C | 39.2
c1ccc(Sc2ncnc3ccccc23)cc1 | 67.5

---

# Test system: IGROV1 ovarian
# protocol.notes: NCI-60 one-dose screen, 48 h
# assay.setup: 10 µM unless noted
# Protocol: Growth inhibition of the IGROV1 human tumor cell line is measured as a screen for anti-cancer activity. Cells are grown in 96 well plates and exposed to the test compound for 48 hours. Compounds are tested at a single concentration, which is 10^-5 M for most compounds. The reported endpoint is percent growth (GI% or GIPRCNT), where numbers from 0 - 100% represent growth inhibition, and numbers from -100% - 0 represent cell death. For example, a value of 40 represents 60% growth inhibition. […]
Compounds without any hit were thinned out: in the full panel of roughly 83,000, 20% have a hit. Activity calls are given as the source filed them. The calls were made as follows: active = growth percent below 10; inactive = the rest.
Outcome codes: yes (1) for active, no (0) for inactive

compound | qualitative.label
COc1cc2c(=O)n(CC3CCCCC3)c3c4cc[nH]c4ncc3c2cc1OC | no (0)
COC1C/C(=N\O)C2OC(c3ccccc3)OCC2O1 (stereo not given) | no (0)
O=C1/C(=C/c2ccccc2)CN(CCC(=O)N2C/C(=C\c3ccccc3)C(=O)/C(=C/c3ccccc3)C2)C/C1=C\c1ccccc1 | no (0)
C/C(Cc1ccc(Cl)cc1)=C(\c1ccc(OCCN2CCCCCC2)cc1)c1ccc(OC(=O)C2CCCCC2)cc1 | no (0)
CCCCCCCCCCCCCC1=NCCN1CCO | no (0)
CSc1ccc(N=C=C(c2ccccc2)c2ccccc2)cc1 | no (0)
Nc1nc(SCc2ccccc2)c2ncn(C3CCCC3)c2n1 | no (0)
O=C(CO[N+](=O)[O-])Nc1ccc(C(=O)/C=C/c2ccc3c(c2)OCO3)cc1 | no (0)
Cc1ccc(-c2nc(/C=N/Nc3cc(C)nc4ccc(Br)cc34)c(C)o2)cc1 | yes (1)
CSc1nc(NCCO)c(C#N)c(-c2cccc(N)c2)n1 | no (0)
Nc1cc(O)cc2cccnc12 | no (0)
COc1ccc(CCN2CC=Cn3c2nc2ccccc2c3=O)cc1 | no (0)
CCCCCCCCOC(=O)CC[C@@H](C)[C@H]1CC[C@H]2[C@@H]3[C@H](OC(=O)CCN)C[C@@H]4C[C@H](OC(=O)CCN)CC[C@]4(C)[C@H]3C[C@H](OC(=O)CCN)[C@]12C | no (0)
C[C@]12C[C@@H](c3ccoc3)OC(=O)[C@@H]1CC[C@]1(C)[C@@H]2CC[C@@H](O)[C@]1(C)O | no (0)
CCN(CC)CCCC(C)Nc1ccnc2c(OC)cccc12 (stereo not given) | no (0)
CC1(C)CC(=O)C(c2c(-c3ccccc3)[nH]c3[nH]c(=S)[nH]c(=O)c23)=C(O)C1 | no (0)
C/C(=C(/c1ccc(O)cc1)c1ccc(OCCN(C)C)cc1)c1ccccc1 | no (0)
O=C1Nc2ccccc2/C1=C/C(=N/c1nnc(-c2ccc(Cl)cc2)s1)c1ccccc1 | no (0)
CSc1nc2sc3c(c2c(=O)n1-c1ccc(C(C)C)cc1)CCC(=O)C3 | yes (1)
NC1=CSC2=N/C(=C\c3ccc(Cl)cc3)C(=O)N12 | no (0)

// data source = PubChem BioAssay (NCI)
